# protocol: Protide stability in normal plasma, mouse
# Type: in vitro ADME
# setup-conditions: 37° C., 30 min
measure-name: % Compound Remaining Compared to %100 Acetonitrile Control (%)
Give bare numbers, in %.

{"columns": ["compound", "output-unit", "observed-value"],
 "data": [
  ["COc1nc(N)nc2c1ncn2C1O[C@H](COP(=O)(N[C@H](C(=O)OCC(C)(C)C)C(C)C)Oc2c(C)ccc3ccccc23)[C@@H](O)[C@@]1(C)O (some centres unmarked)", "%", 60.7],
  ["COc1nc(N)nc2c1ncn2C1O[C@H](COP(=O)(N[C@@H](C)C(=O)OCC(C)(C)C)Oc2cccc3ccccc23)[C@@H](O)[C@@]1(C)O (some centres unmarked)", "%", 0],
  ["C[C@H](NP(=O)(OC[C@H]1OC(n2cnc3c(=O)[nH]c(N)nc32)[C@](C)(O)[C@@H]1O)Oc1cccc2ccccc12)C(=O)OCC(C)(C)C (some centres unmarked) [A, reference compound]", "%", 0],
  ["CC(C)[C@H](NP(=O)(OC[C@H]1OC(n2cnc3c(=O)[nH]c(N)nc32)[C@](C)(O)[C@@H]1O)Oc1cccc2ccccc12)C(=O)OCC(C)(C)C (some centres unmarked) [B, reference compound]", "%", 68.3],
  ["COc1nc(N)nc2c1ncn2C1O[C@H](COP(=O)(N[C@H](C(=O)OCc2ccccc2)C(C)C)Oc2cccc3ccccc23)[C@@H](O)[C@@]1(C)O (some centres unmarked)", "%", 0.4],
  ["COc1nc(N)nc2c1ncn2C1O[C@H](COP(=O)(N[C@H](C(=O)OCC(C)(C)C)C(C)C)Oc2cccc3ccccc23)[C@@H](O)[C@@]1(C)O (some centres unmarked)", "%", 66.5]
]}

Please turn your attention to the following entry.
Query block: Tell me % Compound Remaining Compared to %100 Acetonitrile Control reported for COc1nc(N)nc2c1ncn2C1O[C@H](COP(=O)(N[C@H](C(=O)OC2CCOCC2)C(C)C)Oc2cccc3ccccc23)[C@@H](O)[C@@]1(C)O (some centres unmarked)
Result block: 74.3

###

# protocol: in vitro
# setup-conditions: human
measure-name: CC50 (µM)
One number for each entry, in µM.

See these solved cases before continuing.
{"columns": ["molecule", "CC50, µM"],
 "data": [
  ["COc1nc(N)nc2c1ncn2C1O[C@H](COP(=O)(N[C@H](C(=O)OCC2CC2)C(C)C)Oc2cccc3ccccc23)[C@@H](O)[C@@]1(C)O (stereo partly drawn) [Example 43]", 6],
  ["COc1nc(N)nc2c1ncn2C1O[C@H](COP(=O)(N[C@@H](C)C(=O)OCc2ccccc2)Oc2cccc3ccccc23)[C@@H](O)[C@@]1(C)O (stereo partly drawn) [Example 13]", 14],
  ["COc1nc(N)nc2c1ncn2C1O[C@H](COP(=O)(N[C@@H](C)C(=O)OCc2ccccc2)Oc2cccc3ccccc23)C[C@@]1(C)O (stereo partly drawn) [Example 95]", 70]
]}

Let us examine a further case.
Query block: Recall and state the measured CC50 for COc1nc(N)nc2c1ncn2C1O[C@H](COP(=O)(N[C@@H](C(=O)OCc2ccccc2)c2ccccc2)Oc2cccc3ccccc23)[C@@H](O)[C@@]1(C)O (stereo partly drawn) [compound 68] .
Result block: 50

###

# protocol: Compound cytotoxicity in cytoprotection assay (MTS), MRC-5
# setup-conditions: human, MRC-5 cells
measure-name: CC50 at 7 days
Answer with the number, then the unit.

Query block: Identify measured CC50 at 7 days corresponding to COc1nc(N)nc2c1ncn2C1O[C@H](COP(=O)(N[C@@H](C)C(=O)OCC(C)(C)C)Oc2cccc3ccccc23)[C@@H](O)[C@@]1(C)O (stereo partly shown)
Result block: 3.08 µM

###

# protocol: in vitro
# setup-conditions: human
For each entry below, report its CC50 value.

Solved cases (2 shown):
{"columns": ["compound", "CC50"],
 "data": [
  ["COc1nc(N)nc2c1ncn2C1O[C@H](COP(=O)(N[C@@H](C(=O)OCC(C)(C)C)c2ccccc2)Oc2cccc3ccccc23)[C@@H](O)[C@@]1(C)O (stereo partly drawn) [Example 70]", "38 µM"],
  ["COc1nc(N)nc2c1ncn2C1O[C@H](COP(=O)(N[C@@H](C)C(=O)O[C@@H](C)c2ccccc2)Oc2cccc3ccccc23)[C@@H](O)[C@@]1(C)O (stereo partly drawn) [Example 15]", "12 µM"]
]}

--- query ---
Query block: State its CC50: CCC(C)[C@H](NP(=O)(OC[C@H]1OC(n2cnc3c(OC)nc(N)nc32)[C@](C)(O)[C@@H]1O)Oc1cccc2ccccc12)C(=O)OCC(C)(C)C (stereo partly drawn) [Example 62]
Result block: 18 µM

###

# System: HCV replicon (Genotype 1b)
# protocol: Luciferase genotype 1b replicon potency assay
# setup-conditions: Hepatitis C virus, GETYPE1B, read-out: IC50 μM, HCV genotype 1b luciferase replicon, Renilla luciferase reporter
Labelling field: enter met if recorded IC50 is less than 0.02 µM. Enter not met if it equals or exceeds that cut-off.

{"columns": ["molecule", "cat"],
 "data": [
  ["COc1nc(N)nc2c1ncn2C1O[C@H](COP(=O)(N[C@@H](C)C(=O)OC2Cc3ccccc3C2)Oc2cccc3ccccc23)[C@@H](O)[C@@]1(C)O (stereo partly drawn) [Example 16]", "not met"]
]}

Query block: Does the reported IC50 of the following molecule sit strictly below 0.02 µM? COc1nc(N)nc2c1ncn2C1O[C@H](COP(=O)(N[C@@H](C)C(=O)OCc2ccccc2)Oc2cccc3ccccc23)C[C@@]1(C)O (stereo partly drawn) [Example 95]
Result block: not met

Query block: # check: IC50 < 0.02 µM for COc1nc(N)nc2c1ncn2C1O[C@H](COP(=O)(N[C@@H](CCSC)C(=O)O[C@@H](C)c2ccccc2)Oc2cccc3ccccc23)[C@@H](O)[C@@]1(C)O (stereo partly drawn) [Example 59]
Result block: not met

Query block: Bench note: check whether COc1nc(N)nc2c1ncn2[C@@H]1O[C@H](CO)[C@@H](O)[C@@]1(C)O [Example 2] shows IC50 below 0.02 µM
Result block: not met

Query block: Find out if reported IC50 for CCOc1nc(N)nc2c1ncn2C1O[C@H](COP(=O)(N[C@@H](C)C(=O)OCC(C)(C)C)Oc2cccc3ccccc23)[C@@H](O)[C@@]1(C)O (stereo partly drawn) [Example 76] is less than 0.02 µM
Result block: met

###

# protocol: Protide stability in normal plasma, cynomolgous monkey
# Assay type: in vitro ADME
# setup-conditions: 37° C., 30 min
measure-name: % Compound Remaining Compared to %100 Acetonitrile Control (%)
Answers are plain numbers, in %.

Previously resolved entries follow.
{"columns": ["molecule", "output-unit", "observed-value"],
 "data": [
  ["COc1nc(N)nc2c1ncn2C1O[C@H](COP(=O)(N[C@H](C(=O)OC2CCOCC2)C(C)C)Oc2cccc3ccccc23)[C@@H](O)[C@@]1(C)O (some centres unmarked)", "%", 112.5],
  ["C[C@H](NP(=O)(OC[C@H]1OC(n2cnc3c(=O)[nH]c(N)nc32)[C@](C)(O)[C@@H]1O)Oc1cccc2ccccc12)C(=O)OCC(C)(C)C (some centres unmarked) [A, reference compound]", "%", 98.5],
  ["CC(C)[C@H](NP(=O)(OC[C@H]1OC(n2cnc3c(=O)[nH]c(N)nc32)[C@](C)(O)[C@@H]1O)Oc1cccc2ccccc12)C(=O)OCC(C)(C)C (some centres unmarked) [B, reference compound]", "%", 84.5],
  ["COc1nc(N)nc2c1ncn2C1O[C@H](COP(=O)(N[C@@H](C)C(=O)OCC(C)(C)C)Oc2cccc3ccccc23)[C@@H](O)[C@@]1(C)O (some centres unmarked)", "%", 97.0]
]}

Now consider the entry below.
Query block: Give the value of % Compound Remaining Compared to %100 Acetonitrile Control reported for the following: COc1nc(N)nc2c1ncn2C1O[C@H](COP(=O)(N[C@H](C(=O)OCC(C)(C)C)C(C)C)Oc2c(C)ccc3ccccc23)[C@@H](O)[C@@]1(C)O (some centres unmarked)
Result block: 119.3

###

# protocol: in vitro
# setup-conditions: human
measure-name: log10 of CC50 (log10 of the value in µM)
Values are log10 of CC50 in µM.

Sample records with log10 of CC50:
{"columns": ["compound", "observed-value"],
 "data": [
  ["COc1nc(N)nc2c1ncn2C1O[C@H](COP(=O)(N[C@H](C(=O)OCC(C)(C)C)C(C)C)Oc2c(C)ccc3ccccc23)[C@@H](O)[C@@]1(C)O (some centres unmarked)", 1.36],
  ["COc1nc(N)nc2c1ncn2C1O[C@H](COP(=O)(N[C@@H](C)C(=O)OC2CCCC2)Oc2cccc3ccccc23)[C@@H](O)[C@@]1(C)O (some centres unmarked)", 0.95],
  ["COc1nc(N)nc2c1ncn2C1O[C@H](COP(=O)(N[C@@H](C)C(=O)OC2CCOCC2)Oc2cccc3ccccc23)[C@@H](O)[C@@]1(C)O (some centres unmarked)", 2.11],
  ["COc1nc(N)nc2c1ncn2C1O[C@H](COP(=O)(N[C@H](C(=O)O[C@@H](C)c2ccccc2)C(C)C)Oc2cccc3ccccc23)[C@@H](O)[C@@]1(C)O (some centres unmarked)", 1.46],
  ["COc1nc(N)nc2c1ncn2C1O[C@H](COP(=O)(N[C@H](C(=O)O[C@@H](C)c2ccccc2Br)C(C)C)Oc2cccc3ccccc23)[C@@H](O)[C@@]1(C)O (some centres unmarked)", 1.64]
]}

// input: 5 compounds below; output: log10 of CC50 for each
1. COc1nc(N)nc2c1ncn2C1O[C@H](COP(=O)(N[C@@H](C)C(=O)OCC(C)C)Oc2cccc3ccccc23)[C@@H](O)[C@@]1(C)O (some centres unmarked)
2. COc1nc(N)nc2c1ncn2C1O[C@H](COP(=O)(N[C@H](C)C(=O)OCC(C)(C)C)Oc2cccc3ccccc23)[C@@H](O)[C@@]1(C)O (some centres unmarked)
3. CCOc1nc(N)nc2c1ncn2C1O[C@H](COP(=O)(N[C@@H](C)C(=O)O[C@@H](C)c2ccccc2)Oc2cccc3ccccc23)[C@@H](O)[C@@]1(C)O (some centres unmarked)
4. CCOc1nc(N)nc2c1ncn2C1O[C@H](COP(=O)(N[C@@H](C)C(=O)OCc2ccccc2)Oc2cccc3ccccc23)[C@@H](O)[C@@]1(C)O (some centres unmarked)
5. CNc1nc(N)nc2c1ncn2C1O[C@H](COP(=O)(N[C@@H](C)C(=O)OCC(C)(C)C)Oc2cccc3ccccc23)[C@@H](O)[C@@]1(C)O (some centres unmarked)

Result block:
1. 1.15
2. 1.71
3. 1.08
4. 1.04
5. 1.68
